Experimental Target: TASK-3 (hTASK-3) (Homo sapiens)
Sequence (Q9NPC2 whole entry): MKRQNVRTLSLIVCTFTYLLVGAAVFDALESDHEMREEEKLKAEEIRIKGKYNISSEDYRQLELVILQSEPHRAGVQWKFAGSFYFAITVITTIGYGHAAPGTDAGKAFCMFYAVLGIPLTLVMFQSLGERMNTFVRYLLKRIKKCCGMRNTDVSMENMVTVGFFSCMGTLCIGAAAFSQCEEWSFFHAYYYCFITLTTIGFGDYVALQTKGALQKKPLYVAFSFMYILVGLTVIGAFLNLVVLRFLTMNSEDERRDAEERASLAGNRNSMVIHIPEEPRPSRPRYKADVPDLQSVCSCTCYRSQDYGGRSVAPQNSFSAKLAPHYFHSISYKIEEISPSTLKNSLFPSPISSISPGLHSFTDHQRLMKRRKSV
Assay Info: whole-cell patch clamp, HEK-293T
Reported values of EC50 for individual entries
Quantity: EC50 (nM)

[
  {
    "Compound": "Cc1ccc(SCc2cc(O)nc(N=C(N)Nc3ccc4c(c3)OCCO4)n2)cc1 [CHET3]",
    "Quantity": "EC50",
    "Reported Result": 1400
  },
  {
    "Compound": "Cc1ccc(SCc2cc(O)nc(N=C(N)Nc3cccc4ccccc34)n2)cc1 [CHET3-1]",
    "Quantity": "EC50",
    "Reported Result": 500
  }
]
